# Test system: MOLT-4 leukemia
# assay_summary: NCI tumour cell line growth inhibition, 48 h
Where a SMILES comes first, the peptide text is derived from it. The star is where a group is joined. Boc = CC(C)(C)OC(=O)*; OBn = c1ccc(CO*)cc1

>  <molecule>
COc1ccc(-c2cc(=O)c3cc4c(cc3[nH]2)OCO4)cc1

>  <TGI>
> 100 µM

$$$$
>  <molecule>
CCCCN(CCCC)c1ccc(C(=NC(C)CCCN(CC)CC)c2ccc(N(C)C)cc2)cc1 (stereo unspecified)

>  <TGI>
2.18 µM

$$$$
>  <molecule>
CCOc1ccc(NCC2CC/C(=C\c3ccc(O)cc3)C2=O)cc1 (stereo unspecified)

>  <TGI>
> 38.4 µM

$$$$
>  <molecule>
CC(NC(=O)C(Cc1ccccc1)NC(=O)C(Cc1ccccc1)NC(=O)OC(C)(C)C)C(=O)OCc1ccccc1 (stereo not drawn) (Boc-Phe-Phe-Ala-OBn; configuration not given here)

>  <TGI>
> 100 µM

$$$$
>  <molecule>
COC(=O)C1=C(O)c2cc3c(cc2[C@H](c2cc(OC)c(OC)c(OC)c2)C1C(=O)OC)OCO3 (stereo partly specified)

>  <TGI>
> 100 µM

$$$$
>  <molecule>
COc1cc(C(=O)/C=C/c2cccnc2Nc2ccccc2)cc(OC)c1OC

>  <TGI>
19.5 µM

$$$$
>  <molecule>
C=CC1C(OC2OC(CO)C(O)C(O)C2O)OC=C(C(=O)OC)C1CC=O (stereo unspecified)

>  <TGI>
> 100 µM

$$$$
>  <molecule>
O=C(OCCBr)c1ccc(Cl)c([N+](=O)[O-])c1

>  <TGI>
55.3 µM

$$$$
>  <molecule>
CC(CCC(=O)O)C1CCC2C3C(O)CC4CC(O)CCC4(C)C3CC(O)C12C (stereo unspecified)

>  <TGI>
> 100 µM

$$$$
>  <molecule>
N=C(N)c1ccc(COc2ccccc2OCc2ccc(C(=N)N)cc2)cc1

>  <TGI>
> 100 µM

$$$$
>  <molecule>
CC(C)CCc1n[nH]c(=O)n1/N=C\c1ccccc1

>  <TGI>
> 100 µM

$$$$
